Each entry below carries its recorded viscosity.
# recorded_conditions: 293.15 K; 100 kPa; Liquid; Capillary tube (Ostwald / Ubbelohde) method
Your answer is read as mPa·s, so omit the unit and give the number.

Past entries and their recorded results:
molecule	viscosity [mPa·s]
C1CC[C@H]2CCCC[C@@H]2C1 [trans-decahydronaphthalene]	2.112
CCCCCCCCCC	0.916
CCCCCCCCC	0.724
CCCCCCCCCCC	1.17

Quick one: viscosity for C1CC[C@H]2CCCC[C@H]2C1 [cis-decahydronaphthalene] ?
3.355

* * *

The reader will find reported viscosity values listed item by item below.
# recorded_conditions: 308.15 K; 100 kPa; Liquid; Capillary tube (Ostwald / Ubbelohde) method
Report the figure in mPa·s without appending any unit label.

compound	viscosity, mPa·s
CCCCCCCCCCC	0.931

Name the reported viscosity value associated with the compound C1CC[C@H]2CCCC[C@H]2C1 [cis-decahydronaphthalene]
2.47

Sample CCCCCCCCC — what was its viscosity?
0.604

Looking for the measured viscosity of CCCCCCCCCC , can you help?
0.751

Consider the compound C1CC[C@H]2CCCC[C@@H]2C1 [trans-decahydronaphthalene] and give its measured viscosity.
1.628

* * *

# recorded_conditions: 298.15 K; 100 kPa; Liquid; Capillary tube (Ostwald / Ubbelohde) method
endpoint_name: viscosity (mPa·s)
// return numeric value only (unit: mPa·s, not printed)

Below, 4 molecules whose answers are already recorded.
molecule	measured
CCCCCCCCCC	0.852
C1CC[C@H]2CCCC[C@H]2C1 [cis-decahydronaphthalene]	3.011
C1CC[C@H]2CCCC[C@@H]2C1 [trans-decahydronaphthalene]	1.925
CCCCCCCCC	0.681

Turning now to a further record.
Could you tell me which viscosity is on file for CCCCCCCCCCC ?
1.086

* * *

# recorded_conditions: 323.15 K; 100 kPa; Liquid; Vibrating tube method
endpoint_name: mass density (kg/m3)
Number in kg/m3, nothing else.

compound	measured
C1CC[C@H]2CCCC[C@@H]2C1 [trans-decahydronaphthalene]	847.4

Please give the measured mass density for this compound: CCCCCCCCC
694.43

Which mass density value belongs to CCCCCCCCCC ?
708.36

Which measured mass density value corresponds to C1CC[C@H]2CCCC[C@H]2C1 [cis-decahydronaphthalene] ?
874.05

Could you tell me which mass density is on file for CCCCCCCCCCC ?
718.04

* * *

# recorded_conditions: 313.15 K; 100 kPa; Liquid; Vibrating tube method
Numbers after ± are expanded uncertainties.
In this section, each of the molecules is paired with its reported mass density.
Could you kindly put the unit after your number?

These recorded examples may help you get a feel for the data.
molecule	measured
CCCCCCCCCC	716.03 ± 0.23 kg/m3
CCCCCCCCCCC	725.51 ± 0.32 kg/m3

What mass density value was documented for this molecule, C1CC[C@H]2CCCC[C@H]2C1 [cis-decahydronaphthalene] ?
881.65 ± 0.48 kg/m3

Quick one: mass density of C1CC[C@H]2CCCC[C@@H]2C1 [trans-decahydronaphthalene] ?
854.88 ± 0.14 kg/m3

// mass density lookup, key: CCCCCCCCC
702.35 ± 0.25 kg/m3

* * *

# recorded_conditions: 318.15 K; 100 kPa; Liquid; Vibrating tube method
Listed molecules paired with reported mass density
Report only the number, with the unit kg/m3 understood.

molecule	measurement_unit	mass density
CCCCCCCCC	kg/m3	698.4
C1CC[C@H]2CCCC[C@@H]2C1 [trans-decahydronaphthalene]	kg/m3	851.14
C1CC[C@H]2CCCC[C@H]2C1 [cis-decahydronaphthalene]	kg/m3	877.85
CCCCCCCCCCC	kg/m3	721.78

Would you kindly look at the next entry?
Dear colleague, I am looking for the recorded mass density of the following molecule: CCCCCCCCCC
712.2

Origin of measurements: the NIST ThermoML archive (doi:10.1021/je400250u)
